- test protocol: qHTS of pediatric cancer cell lines to identify multiple opportunities for drug repurposing: Primary screen for SK-N-SH cells (AID 1347098); note: nearly all actives have a fitted effect of over 65% in size
- cond: SK-N-SH viability, CellTiter-Glo luminescence, 48 h; series mostly up to 57 µM
Inconclusive results are not listed. Activity calls are given as the source filed them. Calls come from the whole dose curve; as a rule, active = well fitted cell-killing curve with a large enough effect; inconclusive = small, poorly fitted or top-dose-only effect; inactive = no such curve, though single readings can be large or run the other way.
Permitted responses: active, inactive

**Query** Outcome logged for "CCN(Cc1ccc(Cl)nc1)/C(=C/[N+](=O)[O-])NC" in this assay:
**Result** inactive

**Query** // outcome(item) with item = "CC(C)=CCN1CC[C@@]2(C)c3cc(O)ccc3C[C@@H]1[C@@H]2C"
**Result** inactive

**Query** # lookup: test call for "CC[n+]1c(-c2ccccc2)c2cc(N)ccc2c2ccc(N)cc21"
**Result** active

**Query** Check the results log: what was the call for "O=C(O)c1nn(Cc2ccc(Cl)cc2Cl)c2ccccc12" ?
**Result** inactive

**Query** Per the assay record, what outcome was assigned to CCOC(=O)c1cncn1C(C)c1ccccc1 (centres undefined) ?
**Result** inactive

**Query** Tell me the assay call for "NC(=O)CN1CCCC1=O" please.
**Result** inactive

**Query** Returns: the outcome recorded for "CCOC(=O)NC(C)(C)Cc1ccc(Cl)cc1" in this assay.
**Result** inactive

**Query** So what was the verdict on CC(CC(C(N)=O)(c1ccccc1)c1ccccc1)N(C)C (centres undefined) in this test?
**Result** inactive

**Query** Which outcome was entered for the molecule "CCOC(=O)c1ncn2c1CN(C)C(=O)c1c(I)cccc1-2" in this test?
**Result** inactive

* * *

- Tested on: Hek293T
- test protocol: Primary qHTS to identify gynecologic anti-cancer compounds using libraries of approved drugs and bioactive compounds (AID 1345084); note: nearly all actives have a fitted effect of over 55% in size
- cond: Gynecologic cancer cell panel viability, ATPlite luminescence, 48 h, control line for the selectivity index; series mostly up to 57.5 µM
Records with an inconclusive call do not appear. Active and inactive are the calls of the source. Calls come from the whole dose curve; as a rule, active = well fitted cell-killing curve with a large enough effect; inconclusive = small, poorly fitted or top-dose-only effect, or effect the other way; inactive = flat fitted curve, though single readings scatter.
Hi there, use one of these labels in your reply, thanks! true = active, false = inactive

**Query** Write down the call the test reported for this compound. Item: "CN1CCC(N(Cc2ccccc2)c2ccccc2)CC1"
**Result** false

**Query** Record lookup: outcome of this test for Nc1ccccc1C(=O)OCC(O)CO (stereo not drawn) ?
**Result** false

**Query** // return assay outcome for "CCc1ccc(C2CCNCC2)cc1"
**Result** false

**Query** Would you mind telling me which call this test gave "C[C@@H]1C[C@@H]([C@H](O)CC2CC(=O)NC(=O)C2)C(=O)[C@@H](C)C1" ?
**Result** true

**Query** Called result for "CCOC(C(=O)OCCN(C)C)(c1ccccc1)c1ccccc1"
**Result** false

**Query** What call does the record list for "Oc1c(Br)cc(Br)cc1Br" ?
**Result** false

**Query** Name the outcome recorded for "C[N+]1(CCC(C(N)=O)(c2ccccc2)c2ccccc2)CCCCC1" in the assay.
**Result** false

**Query** Entry "C[C@]12CC[C@H](O)CC1=CC[C@@H]1[C@@H]2CC[C@]2(C)C(=O)CC[C@@H]12" : call = ?
**Result** false

**Query** For "COc1ccc2[nH]cc(CCN(C(C)C)C(C)C)c2c1" , which call appears in the assay record?
**Result** false

**Query** # fetch the recorded call for "O=C(CCCCl)c1ccc(F)cc1" here
**Result** false

**Query** Which outcome was assigned to CCC1(c2cccc(O)c2)CCCCN(C)C1 (stereo not drawn) in this test?
**Result** false

**Query** Which outcome was assigned to "CC(C)(C)OC(=O)c1ncn2c1[C@@H]1CCCN1C(=O)c1c(Br)cccc1-2" in this test?
**Result** false

**Query** Record lookup: outcome of this test for "CCc1cc(OC)c(C[C@H](C)N)cc1OC" ?
**Result** false
